Values were extracted from the supplement of paper PMC6555819.

Exercise: state measured PBM binding z-score for each of the sequences provided.
# Tested on: PPARg homodimer (NR concentration 180 nM)
# testMethodNotes: PBM binding z-score (relative to random genomic background probes); higher = stronger binding; sequences stand for … in GC…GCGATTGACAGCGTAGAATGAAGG
A bare number is all that is needed in reply.

Name the recorded PBM binding z-score for CGTCAAAGTTCAAGTAAGGTAACGTAAAGCACGC .
3.47

Name the recorded PBM binding z-score for TCTGGTTGGTCAAAGGTCACACACTCGAAATGCG .
7.5

Name the recorded PBM binding z-score for AGTCAACGTTCACTAGGTAACGTAAGATTCAGCT .
-0.0596

Name the recorded PBM binding z-score for CGAACTAGGTCAGAACAGGACAGTGAAGGATGAT .
0.92

Name the recorded PBM binding z-score for TCTGCTAGGTCAACGATGGTCAGCTAATCTGCTA .
1.44

Name the recorded PBM binding z-score for ATCGAAAGGTCGAGGTGAGTGTAGAGAAAGGGAA .
2.56

Name the recorded PBM binding z-score for ATCTCTAGGTAAAGTTCAGGGAAAGATCGATAGA .
2.21

Name the recorded PBM binding z-score for GCTTGTTGATCAAGGTTAAGAAAGACTAAGCTAA .
-0.0187

Name the recorded PBM binding z-score for CCTCGGAGGACAACATGAGGTCAGAGCTGCCAGA .
1.69

Name the recorded PBM binding z-score for AGTCAAAGTTCACTAGGTAACGTATGATTCAGCT .
2.15

Name the recorded PBM binding z-score for TCTTGTAGATCACTAGAGGTTAAGAAAGTGCGCT .
0.0426

Name the recorded PBM binding z-score for ACTAGTTGGTCAGTTGAGGTCACACACAATTCGG .
3.72

----------
Exercise: state measured PBM binding z-score for each of the sequences provided.
# Tested on: PPARg:RXRa DBDmut IVT, anti-RXR (DBD mutation: RXRa K156A/R161A, NR concentration 270 nM, RXRa partner concentration 90 nM)
# testMethodNotes: PBM binding z-score (relative to random genomic background probes); higher = stronger binding; sequences stand for … in GC…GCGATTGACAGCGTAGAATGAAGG
A bare number is all that is needed in reply.

Name the recorded PBM binding z-score for TAGCCTAGGTCATTCGGGGGCCAGTATAGAAAGC .
2.62

Name the recorded PBM binding z-score for TCATATAGGTAAAGGTTAAAGTCGAACGATATGA .
3.98

Name the recorded PBM binding z-score for ATACCAAGGTGATCGTGAGGTGGTTGATACTAAC .
0.119

Name the recorded PBM binding z-score for GCTGCTAGGTGAACTGATGGTCAGCTAAAGCTCG .
3.85

Name the recorded PBM binding z-score for CAAACTAGGTCACGAAAGGACAAAGTCGAATGAC .
8.65

Name the recorded PBM binding z-score for ATCTCCAGGTAAAAGTTCAGTGAATCCCGAGGAT .
0.0885

Name the recorded PBM binding z-score for CCTATTAGTTGACCAGAAGGGCAACCGAAGCTCG .
0.319

Name the recorded PBM binding z-score for TTTTGTAGATCAATAGAGGTTAAGAAAGTGCGCT .
1.22

Name the recorded PBM binding z-score for TCTAGTTGCTCAAAGGTCACACACTCGAAATGCG .
2.7

Name the recorded PBM binding z-score for TCATATAGGTAAACCGGTGAAAGTCCGTAAGTTA .
4.14

Name the recorded PBM binding z-score for GCTCGGAGGACAAGTTCAGAGCTTTGTCCGTAGA .
-0.557

Name the recorded PBM binding z-score for GCTAGCAGGCCATTTGGGTCACTCAATGACGGGC .
1.95

----------
# Test system: RARa homodimer (NR concentration 270 nM)
# testMethodNotes: PBM binding z-score (relative to random genomic background probes); higher = stronger binding; sequences stand for … in GC…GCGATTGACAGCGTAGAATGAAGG
# if value of PBM binding z-score reaches -0.2, tag t; if it stays below, tag f

Dear colleague, could you confirm whether CCTAGCAGGCCAATCTGCGTCACTCAAGGCTTGA has PBM binding z-score at or above -0.2?
t

Dear colleague, could you confirm whether CCTTACGGGTCACGAGGCTATAGCACGACGAGCG has PBM binding z-score at or above -0.2?
t

Dear colleague, could you confirm whether GGAACGAGGGCAACGTTGATAGCATCTGTCGACG has PBM binding z-score at or above -0.2?
f

Dear colleague, could you confirm whether TCTCGGAGGACACGAAGGTCTGAGCTTTCCAGAG has PBM binding z-score at or above -0.2?
f

Dear colleague, could you confirm whether GCTGCTAGTTCAGGTTGGTCAGCTAACGGGTACG has PBM binding z-score at or above -0.2?
f

Dear colleague, could you confirm whether ATATGTAGGTTAAGGGTCGTTCAGGTTGGTTCGC has PBM binding z-score at or above -0.2?
t

Dear colleague, could you confirm whether CAAACTAAGTCAAAGGTCAAAGTCGAGCCAACCA has PBM binding z-score at or above -0.2?
t

Dear colleague, could you confirm whether CCGACTGGGGCATAAGGTTACGATAAGCCAGCCC has PBM binding z-score at or above -0.2?
f

Dear colleague, could you confirm whether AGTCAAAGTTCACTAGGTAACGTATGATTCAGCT has PBM binding z-score at or above -0.2?
t

Dear colleague, could you confirm whether AGAATGAGGTTACCAAAGATCAGGGAGACGCTTG has PBM binding z-score at or above -0.2?
t

Dear colleague, could you confirm whether CCTGCTAGGTCAATGGTTAGCTAAAGCAGCTCGC has PBM binding z-score at or above -0.2?
t

Dear colleague, could you confirm whether CCTACTGGCCCACGAAAGGTCATTGATTCAGTGA has PBM binding z-score at or above -0.2?
t

Dear colleague, could you confirm whether CCGACTGGGGCAGAAAGGTTACCAGACCATCCGG has PBM binding z-score at or above -0.2?
f

Dear colleague, could you confirm whether ATCTATAGGTAAAGTTCAGTGAAAGATCGATAGA has PBM binding z-score at or above -0.2?
t

Dear colleague, could you confirm whether CCTACTGGGCCAAAATGGTCATTGATGCCGATAA has PBM binding z-score at or above -0.2?
t

Dear colleague, could you confirm whether CCTACTGGGCCAAGAAGGTCATTGATGCCGATAA has PBM binding z-score at or above -0.2?
t

Dear colleague, could you confirm whether AGAATGAGGTTTTTAAGATCAGGGAATTGCGGTC has PBM binding z-score at or above -0.2?
t

Dear colleague, could you confirm whether TCTTGTAGAACAAGCAGGTTAAGAAAGCCTGAGT has PBM binding z-score at or above -0.2?
f

Dear colleague, could you confirm whether TGTCAAAGTACAAAGGTAACGTAAGTATCCACAC has PBM binding z-score at or above -0.2?
t

Dear colleague, could you confirm whether ATCTCTAAGTAAGACTCAGTTCAGTGAAGAACGC has PBM binding z-score at or above -0.2?
t

Dear colleague, could you confirm whether ATATGTAGGTTATCGTGTCATTCAGTTTGCGCAT has PBM binding z-score at or above -0.2?
t

Dear colleague, could you confirm whether TCTGCTAGGTCAACGCTGGTCAGCTAATCTGCTA has PBM binding z-score at or above -0.2?
f

Dear colleague, could you confirm whether CCTAGTAGGCCAATCTGGGTCACTCAAGGCTTGA has PBM binding z-score at or above -0.2?
f

Dear colleague, could you confirm whether TCTAGTTGGTCATAGGTCACACACTCGAAATGCG has PBM binding z-score at or above -0.2?
t

Dear colleague, could you confirm whether TCTATTAGTTGAAGGGCAGCCGACGAGTCCGTTT has PBM binding z-score at or above -0.2?
t

----------
# System: PPARg homodimer (NR concentration 180 nM)
# testMethodNotes: PBM binding z-score (relative to random genomic background probes); higher = stronger binding; sequences stand for … in GC…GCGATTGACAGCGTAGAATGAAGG
Exercise: state measured PBM binding z-score for each of the sequences provided.
A bare number is all that is needed in reply.

Name the recorded PBM binding z-score for CCTATAAGTTGACCATAAGGGCAACCGAAGCTCG .
1.61

Name the recorded PBM binding z-score for GGAACGAGGGCAAGTTGAAAGCAGAGTTTGATGG .
0.201

Name the recorded PBM binding z-score for TCTACTAGTTGAAGGGCAACCGACGAGTCCGTTT .
0.312

Name the recorded PBM binding z-score for TCATATAGTTAAACAGGTGAAAGTCCGTAAGTTA .
1.34

Name the recorded PBM binding z-score for GCATATAGGTAATACAAGGTGAAAGTGCGATTGT .
0.954

Name the recorded PBM binding z-score for ATATGTAGGTTACATCCGGGTCATTAAGGCTATG .
1.78
